- Tested on: Candida albicans
- measurementProtocol: Antifungal activity against 5 x 10^6 CFU/ml Candida albicans B59163 by resazurin based fluorimetry assay
- Assay type: functional, organism-based
Answer each item with its documented IC50.
Please report the result as a number followed by the unit.

So what does the record say about IC50 for CCC(C)n1ncn(-c2ccc(N3CCN(c4ccc(OCC5COC(Cn6cncn6)(c6ccc(Cl)cc6Cl)O5)cc4)CC3)cc2)c1=O (centres undefined) ? 1410 nM

So what does the record say about IC50 for CN(C/C=C/C#CC(C)(C)C)Cc1cccc2ccccc12 ? 3570 nM

So what does the record say about IC50 for CC(C)N1CCN(c2ccc(N3CCN(c4ccc(OC[C@H]5OC[C@](Cn6cncn6)(c6ccc(F)cc6F)O5)cc4)CC3)cc2)C1=O ? 40 nM

So what does the record say about IC50 for Clc1ccc(COC(Cn2ccnc2)c2ccc(Cl)cc2Cl)c(Cl)c1 (centres undefined) ? 300 nM

Data credit: ChEMBL document CHEMBL1671757
